TARGET OF ASSAY: HIV broadly neutralizing antibody 2G12
PROTOCOL DESCRIPTION: radiolabelled glycopeptide with 2G12 in solution, protein G bead capture, scintillation counting
Primed or numbered codes have the meaning given here. Where no end group is shown, it is not given here. [ ]: non-standard residue; d: D form. The star is where a group is joined. Hpra′ = its azide, alkyne or alkene has reacted where a group follows in round brackets; Man9″ = Man9 glycan attached to Hpg by CuAAC click with Man9-azide; Man9(3) = Man9-azide click-glycosylated onto Hpg; For = O=C*
ATTRIBUTE MEASURED: Fmax
Value and unit, in that order.

Go through the items and report each one's Fmax.
1. glycopeptide 10F2 (Fixed library, round 10), ribosomally translated (peptide) peptide: For-[Hpra′](Man9″)HPYNTSRTSA[Hpra′](Man9″)[Hpra′](Man9″)AALK[Hpra′](Man9″)QVTD[Hpra′](Man9″)YALALFHRILGSGSLGHHHHHHRDYKDDDDK
2. For-[Hpra′](Man9(3))RSIPWYTYRWLPNGSGSLGHHHHHHRDYKDDDDK [glycopeptide 10V1-Δ9]
3. glycopeptide 10F12 (Fixed library, round 10) (not fully specified (bridges); cysteine pairing not given here) peptide: For-[Hpra′](Man9″)CYVTVIPA[Hpra′](Man9″)N[Hpra′](Man9″)PEARLGIVCH[Hpra′](Man9″)PGIRRGKALYGSGSLGHHHHHHRDYKDDDDK

Resp:
1: 86%; 2: 20%; 3: 90%
